Target: BCL2 WT (Homo sapiens (Human))
Sequence (P10415 other isoform, or with tags, fused parts or gaps): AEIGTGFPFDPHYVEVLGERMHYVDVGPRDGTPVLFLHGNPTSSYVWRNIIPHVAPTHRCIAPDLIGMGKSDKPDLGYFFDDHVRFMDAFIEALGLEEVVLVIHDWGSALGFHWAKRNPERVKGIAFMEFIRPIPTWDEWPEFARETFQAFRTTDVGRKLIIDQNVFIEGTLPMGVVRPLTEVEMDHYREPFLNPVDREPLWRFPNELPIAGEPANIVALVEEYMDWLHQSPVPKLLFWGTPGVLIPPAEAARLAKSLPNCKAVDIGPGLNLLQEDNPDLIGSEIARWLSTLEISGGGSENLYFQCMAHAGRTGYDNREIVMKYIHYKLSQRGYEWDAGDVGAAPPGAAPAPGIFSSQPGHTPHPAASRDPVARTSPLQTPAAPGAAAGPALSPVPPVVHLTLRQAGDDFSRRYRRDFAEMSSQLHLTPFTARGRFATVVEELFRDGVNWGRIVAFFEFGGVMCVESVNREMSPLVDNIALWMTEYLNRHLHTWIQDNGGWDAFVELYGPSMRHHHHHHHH
Assay: TR-FRET competitive binding assay, BCL2 WT
Details: Ki determined from IC50, read-out: TR_FRET EKI_Bcl2
measurement_kind: Ki (nM)

Solved cases (2 shown):
Cc1cc(OCCN2CCOCC2)c(F)cc1CC(=O)N1CCc2cc(-c3cc(C(=O)N(c4ccc(O)cc4)c4cc(C#N)n(C)c4C)c(C)n3C)c(C(=O)N3Cc4ccccc4C[C@H]3C)cc2C1 [Example 224]: 0.073
Cc1c(N(C(=O)c2cc(-c3cc4c(cc3C(=O)N3Cc5ccccc5C[C@H]3CN3CCCCC3)CN(C(=O)Cc3ccc(OCCN5CCOCC5)cc3F)CC4)n(C)c2C)c2ccc(O)cc2)cc(C#N)n1C [Example 229]: 0.04

a: Cc1c(C(=O)N(c2ccccc2)c2cc(F)cc(C#N)c2)cc(-c2cc3c(cc2C(=O)N2Cc4ccccc4C[C@H]2C)CN(C(=O)Cc2ccc(OCCN4CCOCC4)cc2F)CC3)n1C [Example 227]
b: Cc1c(N(C(=O)c2cc(-c3cc4c(cc3C(=O)N3Cc5ccccc5C[C@H]3CN)CN(C(=O)Cc3ccc(OCCN5CCOCC5)cc3F)CC4)n(C)c2C)c2ccc(O)cc2)cc(C#N)n1C [Example 230]
c: Cc1c(C(=O)N(c2ccccc2)c2cnn(C)c2)cc(-c2cc3c(cc2C(=O)N2Cc4ccccc4C[C@H]2CN2CCCCC2)CN(C(=O)Cc2ccc(OCCC4CCOCC4)cc2)CC3)n1C [Example 240]
Hi! Can you put these in order of Ki, lowest number first? Answer with the labels in sequence, matching the requested order.
b, c, a
(b: 0.014 nM, c: 0.116 nM, a: 0.17 nM)
